test system: Wnt5a (protein binding on small-molecule microarray); test: small molecules binding Wnt5a protein – biophysical, small-molecule microarray, 635/667 nm fluorescence, primary screen (AID 1142); details: 635 nm fluorescence, higher = more signal;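 further: fluorescence read at 667 nm with signal to noise per printed feature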
Please assign a class to every record based on measured composite z-score, with ranges I = under -0.1, II = from -0.1 up to 0.3, III = 0.3 and over

• [N-]=[N+]=Nc1ccccc1C[C@]1(C(=O)NCC(O)CO)COC(c2ccc(OCCCO)cc2)=N1 (stereo not given in full) = II
• C=CC[C@@H](OC(=O)Nc1ccc(SC)cc1)c1ccc(O)c(F)c1 = II
• CCN(CC)c1ccc(N2CC=CC34O[C@@H]5/C=C\CCCOC(=O)C5[C@H]3C(=O)N(C(C)CO)[C@@H]4C2=O)cc1 (stereo not given in full) = I
• COc1ccc([Si](C)(C)[C@H]2[C@H](CC(=O)N3CCC[C@H]3CO)O[C@@]3(C(=O)N(Cc4ccc(N5CCOC5=O)cc4)c4ccccc43)[C@@H]2C)cc1 = III
• CN(C)C(=O)[C@]1(Cc2ccccc2CN=[N+]=[N-])N=C(c2ccc(OCCCO)cc2)O[C@@H]1c1ccccc1 = III
• COc1cc2c(cc1O)C=[N+](Cc1sc3ccccc3c1Cl)CC2 = I
• O=C1[C@H]2C=C(I)[C@H](C[C@@H]2OCCOCCO)[C@@]12CO2 = II
• CCCCN1CC=CC23O[C@@H]4/C=C\CCCOC(=O)C4[C@H]2C(=O)N(CCO)[C@@H]3C1=O (stereo not given in full) = I
• COc1ccc(CCNC(=O)[C@@]2(c3ccc([N+](=O)[O-])cc3)CC(=O)N(C3CCCCC3)[C@@H]2c2ccc(CO)cc2)cc1 = II
• C=CCN1C(=O)[C@]2(CCS(=O)(=O)c3ccccc3)N=C(c3ccc(OCCCO)cc3)O[C@@H]2c2ccccc21 = III
• CC1CC/C=C\[C@H]2OC34C=CCN(c5ccc6ccccc6c5)C(=O)[C@H]3N(CCCO)C(=O)[C@@H]4C2C(=O)O1 (stereo not given in full) = I
• CCCC[C@@H](O)C1=C(COc2ccccc2)C[C@H]2C(=O)N(Cc3ccccc3)C(=O)[C@H]2[C@H]1CO = I
• CC(C)N1CC=CC23O[C@@H]4C=CCCOC(=O)C4[C@H]2C(=O)N(CCCO)[C@@H]3C1=O (stereo not given in full) = I
• C#Cc1cc2ccccc2oc1=O = I
• CC(C)C(O)C1C=CC2C(=O)N(c3ccccc3)C(=O)C2N1Nc1ccccc1 (stereo not given) = II
• COC(=O)[C@@]1(Cc2ccccc2)[C@H]2c3cc(C(=O)N(C)C)n(Cc4ccc(C)o4)c3C[C@H]2CN1C(=O)c1ccccc1 = III
• COCCOC(=O)N1C(=O)[C@@]2(c3ccccc31)[C@H](C(=O)NC[C@H](O)c1ccccc1)[C@H]1C(=O)O[C@H](c3ccccc3)[C@H](c3ccccc3)N1[C@@H]2c1ccc(O)cc1 = III
• [N-]=[N+]=Nc1ccccc1C[C@]1(C(=O)O)COC(c2ccc(OCCCO)cc2)=N1 = II
• COc1ccc([Si](C)(C)[C@@H]2[C@@H](CC(=O)N(CCO)Cc3ccccc3)O[C@]3(C(=O)N(Cc4cccc(N5CCCCC5=O)c4)c4ccccc43)[C@H]2C)cc1 = III
• CC(C)C[C@@H]1NC(=O)[C@@H]2C[C@H](C(=O)NCCCCCCN)[C@H](c3cccc(OCCO)c3)N2C1=O = II
• Cc1ccc(S[C@]2(C(=O)NC(C)C)CC(=O)N(Cc3cc(C(F)(F)F)cc(C(F)(F)F)c3)[C@@H]2c2ccc(CO)cc2)cc1 = II
• Cc1ccc(S[C@]2(C(=O)NCC(F)(F)F)CC(=O)N(Cc3cc(C(F)(F)F)cc(C(F)(F)F)c3)[C@@H]2c2ccc(CO)cc2I)cc1 = I
